Data origin: patent US12146004B2

Documented MIC A. baumanii ATCC BAA-747 across a set of molecules
- Tested on: Acinetobacter baumannii
- Assay type: cell-based
Bridge positions count the residues as written; N and C are the ends. Square brackets hold non-standard residues; d marks the D form. Peptide text beside a SMILES is read from it. * marks the point of attachment. ξ: configuration not given here. ξHexahydromandeloyl = O=C(C(O)C1CCCCC1)*; dCha = N[C@H](CC1CCCCC1)C(=O)O; Thr(3ξ) = CC(O)[C@H](N)C(=O)O; Dab = NCC[C@H](N)C(=O)O
Assay endpoint: MIC A. baumanii ATCC BAA-747 (µg/mL)

Molecule	Study system	Reported
CCCCCCCCC1CNCC1C(=O)N[C@H](C(=O)N[C@@H](CCN)C(=O)N[C@H]1CCNC(=O)[C@H]([C@@H](C)O)NC(=O)[C@H](CCN)NC(=O)[C@H](CCN)NC(=O)[C@H](CC(C)C)NC(=O)[C@@H](Cc2ccccc2-c2ccccc2)NC(=O)[C@H](CCN)NC1=O)C(C)O (single isomer, unassigned; isomer 2) [Example 10]	Acinetobacter baumannii	1
CC(C)C[C@@H]1NC(=O)[C@@H](CC2CCCCC2)NC(=O)[C@H](CCN)NC(=O)[C@@H](NC(=O)[C@H](CCN)NC(=O)[C@@H](NC(=O)[C@H](CCN)NC(=O)C(O)C2CCCCC2)C(C)O)CCNC(=O)[C@H]([C@@H](C)O)NC(=O)[C@H](CCN)NC(=O)[C@H](CCN)NC1=O (stereo partly drawn) [Example 37] (ξHexahydromandeloyl-[Dab][Thr(3ξ)][Dab][Dab][Dab][dCha]L[Dab][Dab]T; lactam 4-C)	Acinetobacter baumannii	0.125
CC(C)CC(CN)C(=O)N[C@H](C(=O)N[C@@H](CN)C(=O)N[C@H]1CCNC(=O)[C@H]([C@@H](C)O)NC(=O)[C@H](CCN)NC(=O)[C@H](CCN)NC(=O)[C@H](CC(C)C)NC(=O)[C@@H](Cc2ccc(Br)cc2)NC(=O)[C@H](CCN)NC1=O)C(C)O (single isomer, unassigned; isomer 2) [Example 14]	Acinetobacter baumannii	0.125
